- target: Nuclear receptor coactivator 1 (Homo sapiens)
- procedure text: SRC1 coactivator transcriptional activity inhibitors, primary screen, cell-based, luminescence (AID 588354)
- measurement parameters: HEK293 GAL4-SRC1 luciferase reporter, at 3.6 µM, hits give high values
In all, about 360,000 compounds went through this assay and about 430 (0.12%) were called active. The sample holds actives, similar compounds and a random draw of the others, so the mix is not that of the screen.
Please use TRUE whenever inhibition is not below -10%, and FALSE whenever it is.

# input Does inhibition meet or surpass -10% for CCOC(=O)c1cc(C(=O)Nc2ccc(S(=O)(=O)Nc3ccc(OC)cc3)cc2)nn1C ?
# output TRUE

# input Does inhibition meet or surpass -10% for O=C(Cc1ccccn1)c1ccc(O)cc1O ?
# output TRUE

# input Does inhibition meet or surpass -10% for CCC(C)NC(=O)c1cc(Cl)ccc1OC (stereo not drawn) ?
# output TRUE

# input Does inhibition meet or surpass -10% for CCN(CC)C(=O)[C@H]1C[C@H](CC(=O)NCC23CC4CC(CC(C4)C2)C3)C(=O)N2CCc3c([nH]c4cc(CCC(=O)N(C)C)ccc34)[C@]12C ?
# output TRUE

# input Does inhibition meet or surpass -10% for COc1ccc(OC)c(Nc2nc3ccccc3n3cnnc23)c1 ?
# output TRUE

# input Does inhibition meet or surpass -10% for COC(=O)Cc1[nH]n(-c2nc3ccccc3s2)c(=O)c1C(C)=Nc1ccc(OC)cc1 ?
# output TRUE

# input Does inhibition meet or surpass -10% for COCC1CCCN(Cc2nc(-c3ccc4c(c3)OCO4)no2)C1 (stereo not drawn) ?
# output FALSE

# input Does inhibition meet or surpass -10% for C=CCN1C=C(C(=O)c2ccccc2)C(=O)CC1 ?
# output TRUE

# input Does inhibition meet or surpass -10% for CCOC1=C2CN(S(=O)(=O)c3ccc(C)cc3)[C@H](c3cccs3)C[C@H]2[C@H]2C(=O)N(c3ccccc3)C(=O)[C@H]2C1 ?
# output TRUE

# input Does inhibition meet or surpass -10% for O=S(=O)(NCc1ccc2c(c1)OCO2)c1cccc2nsnc12 ?
# output TRUE

# input Does inhibition meet or surpass -10% for Nc1c(N(CCCO)C(=O)C2CCCC2)c(=O)[nH]c(=O)n1Cc1ccccc1 ?
# output TRUE

# input Does inhibition meet or surpass -10% for Cc1cc(NC(=O)CSC2=NS(=O)(=O)c3cc(Cl)ccc3N2)no1 ?
# output FALSE

# input Does inhibition meet or surpass -10% for CCCNC(=O)C1(C)CCN(C(=O)c2ccccc2OC(F)(F)F)C1 (stereo not drawn) ?
# output TRUE

# input Does inhibition meet or surpass -10% for CC(Oc1ccc(Cl)cc1Cl)C(=O)/C=C/N(C)C (stereo not drawn) ?
# output FALSE

# input Does inhibition meet or surpass -10% for COCCn1c(N)c(NCc2ccccc2)c(=O)[nH]c1=O ?
# output FALSE

# input Does inhibition meet or surpass -10% for CC(C)c1cccc(C(C)C)c1Nc1cn[nH]c1 ?
# output TRUE

# input Does inhibition meet or surpass -10% for C[C@H]1CN([C@@H](C)CO)C(=O)c2cc(-c3cccc(F)c3)cnc2O[C@@H]1CN(C)S(C)(=O)=O ?
# output TRUE

# input Does inhibition meet or surpass -10% for CO/N=C/c1cn(-c2ccc(Cl)cc2)nn1 ?
# output FALSE

# input Does inhibition meet or surpass -10% for N#CCCN(C(=O)Nc1ccc(Cl)c(Cl)c1)C1CCCCC1 ?
# output TRUE

# input Does inhibition meet or surpass -10% for COc1cc2c3c(c1)/C(=C1/SC(=S)NC1=O)C(=O)N3C(C)(C)C=C2C ?
# output FALSE

# input Does inhibition meet or surpass -10% for CCn1c(C(C)C)n[nH]c1=S ?
# output FALSE

# input Does inhibition meet or surpass -10% for Cc1ccc(CSCC2Nc3ccc(C(=O)N4CCN(c5ccc(F)cc5)CC4)cc3NC2=O)cc1 (stereo not drawn) ?
# output TRUE

# input Does inhibition meet or surpass -10% for CCC(C)c1ccccc1NC(=O)CN(C)CC(=O)Nc1ccccc1SC (stereo not drawn) ?
# output TRUE

# input Does inhibition meet or surpass -10% for O=C(CC(O)(C(F)(F)F)C(F)(F)F)Nc1ccc(Cl)c(Cl)c1 ?
# output TRUE

# input Does inhibition meet or surpass -10% for CCc1ccnc(NS(=O)(=O)c2ccc3c(c2)OCCO3)c1 ?
# output TRUE

# input Does inhibition meet or surpass -10% for COc1ccc(Nc2ncnc3ccc(Br)cc23)c(OC)c1 ?
# output TRUE

# input Does inhibition meet or surpass -10% for O=C(NCCc1ccccc1)Oc1ccc(Cl)cc1 ?
# output FALSE

# input Does inhibition meet or surpass -10% for O=C(Nc1cccc(Cc2ccccc2)c1)Nc1ccc2nc([C@@H]3O[C@H](CO)[C@@H](O)[C@H](O)[C@H]3O)[nH]c2c1 ?
# output TRUE

# input Does inhibition meet or surpass -10% for CC1(C(=O)O)CCC(C(=O)Nc2ccc(Cl)c(Cl)c2)C1(C)C (stereo not drawn) ?
# output TRUE

# input Does inhibition meet or surpass -10% for Nc1nc(SCC(=O)N2CCN(S(=O)(=O)c3ccc(Cl)cc3)CC2)n[nH]1 ?
# output TRUE

# input Does inhibition meet or surpass -10% for N#CC1(NC(=O)COC(=O)CSc2ccc(F)cc2)CCCCC1 ?
# output TRUE

# input Does inhibition meet or surpass -10% for CC(C)C[C@H](NC(=O)C1CCC(CNC(=O)[C@@H]2CCCN2C(=O)OC(C)(C)C)CC1)C(=O)O (stereo partly drawn) ?
# output TRUE

# input Does inhibition meet or surpass -10% for CC(OC(=O)c1ccc(-n2cnnn2)cc1)C(=O)NCc1ccccc1 (stereo not drawn) ?
# output TRUE

# input Does inhibition meet or surpass -10% for CCn1c(SCC(=O)N2CCCC2=O)nc2ccccc21 ?
# output TRUE

# input Does inhibition meet or surpass -10% for COc1ccc([C@H]2[C@H](C(C)=O)N3N=Cc4ccccc4C3C23C(=O)OC(C)(C)OC3=O)cc1 (stereo partly drawn) ?
# output FALSE

# input Does inhibition meet or surpass -10% for CCCCCC(O)c1cccc(OCc2ccc3ccccc3n2)c1 (stereo not drawn) ?
# output FALSE

# input Does inhibition meet or surpass -10% for O=C(CCNC(=O)c1ccc([N+](=O)[O-])cc1)Nc1ccccc1N1CCOCC1 ?
# output FALSE

# input Does inhibition meet or surpass -10% for CC(=O)Nc1ccc(C(=O)Nc2cc(S(=O)(=O)N3CCOCC3)ccc2N2CCOCC2)cc1 ?
# output TRUE

# input Does inhibition meet or surpass -10% for Nc1cc2c(cc1Br)-c1ccc(F)cc1C2=O ?
# output FALSE

# input Does inhibition meet or surpass -10% for Cc1cc(NC(=O)CSc2nccn2-c2ccc([N+](=O)[O-])cc2)no1 ?
# output FALSE

# input Does inhibition meet or surpass -10% for CSc1ncccc1C(=O)Nc1cccc(S(=O)(=O)N2CCOCC2)c1 ?
# output FALSE
